// provenance: paper PMC7115614

Let's look at some molecules and their measured Cytotoxicity Cell morphology (MCC).
Test system: human embryonic lung (HEL) cells
Conditions: Table 5

{"molecule": "O=C1O/C(=C\\Cn2cc(CCO)nn2)C(OCc2ccccc2)=C1OCc1ccccc1 [Compound 10p]", "assay target": "human embryonic lung (HEL) cells", "comparison operator": ">", "Cytotoxicity Cell morphology (MCC) [μM]": 100}
{"molecule": "Nc1ccn(C[C@@H](CO)OCP(=O)(O)O)c(=O)n1.O.O [Cidofovir, reference compound]", "assay target": "human embryonic lung (HEL) cells", "comparison operator": ">", "Cytotoxicity Cell morphology (MCC) [μM]": 300}
{"molecule": "Cc1ccc(-c2cn(C/C=C3\\OC(=O)C(OCc4ccccc4)=C3OCc3ccccc3)nn2)cc1 [Compound 10f]", "assay target": "human embryonic lung (HEL) cells", "comparison operator": "=", "Cytotoxicity Cell morphology (MCC) [μM]": 20}
{"molecule": "CC(C)(C)c1cn(C/C=C2\\OC(=O)C(OCc3ccccc3)=C2OCc2ccccc2)nn1 [Compound 10n]", "assay target": "human embryonic lung (HEL) cells", "comparison operator": "=", "Cytotoxicity Cell morphology (MCC) [μM]": 100}
{"molecule": "CCCCCCCCCCc1cn(C[C@H](O)[C@H]2OC(=O)C(OCc3ccccc3)=C2OCc2ccccc2)nn1", "assay target": "human embryonic lung (HEL) cells", "comparison operator": "=", "Cytotoxicity Cell morphology (MCC) [μM]": 20}
{"molecule": "O=C1O/C(=C\\Cn2cc(-c3cc(F)cc(F)c3)nn2)C(OCc2ccccc2)=C1OCc1ccccc1 [Compound 10d]", "assay target": "human embryonic lung (HEL) cells", "comparison operator": "=", "Cytotoxicity Cell morphology (MCC) [μM]": 100}
{"molecule": "CCCCc1cn(C[C@H](O)[C@H]2OC(=O)C(OCc3ccccc3)=C2OCc2ccccc2)nn1", "assay target": "human embryonic lung (HEL) cells", "comparison operator": "=", "Cytotoxicity Cell morphology (MCC) [μM]": 20}
